# Target: mUSP18 (Mus musculus)
# Construct: (46-368); His-tag (N); made in house
# Sequence (Q9WTV6 46-368): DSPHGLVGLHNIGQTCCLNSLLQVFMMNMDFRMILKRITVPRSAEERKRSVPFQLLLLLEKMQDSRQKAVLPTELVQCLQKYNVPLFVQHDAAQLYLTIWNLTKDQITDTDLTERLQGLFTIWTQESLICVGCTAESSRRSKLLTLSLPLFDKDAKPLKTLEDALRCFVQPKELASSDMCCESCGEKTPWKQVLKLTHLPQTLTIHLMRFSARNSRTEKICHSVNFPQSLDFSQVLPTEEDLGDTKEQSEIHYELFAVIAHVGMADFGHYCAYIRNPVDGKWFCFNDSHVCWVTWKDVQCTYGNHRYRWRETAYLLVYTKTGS
# Experiment: High-throughput screening, ISG15ct-RhoMP, single dose 1.25 µM
# Format: biochemical, murine
# Test conditions: mUSP18 %inhibition; carboxylic acid (CA) with coupling reagents DIC/HOBT; read-out: %inh CA + DIC/HOBT
Measured quantity: inhibition at 1.25 µM (%)
Record the value in %, omitting the unit from your answer.

Which measured inhibition at 1.25 µM value corresponds to Cc1cc(C(=O)N(C)c2ccccc2C(=O)O)sc1C ? 8.07

Which measured inhibition at 1.25 µM value corresponds to O=C(O)CCc1ccc(O)cc1 ? -16.6

Which measured inhibition at 1.25 µM value corresponds to O=C(O)c1nn(-c2ccccc2)c(=O)[nH]c1=O ? -0.87

Which measured inhibition at 1.25 µM value corresponds to O=C(O)C1CCCN(c2ncccc2C(F)(F)F)C1 (stereo not drawn) ? -2.29

Which measured inhibition at 1.25 µM value corresponds to O=C(O)c1ccc(=O)n(Cc2ccccc2)n1 ? 0.49

Which measured inhibition at 1.25 µM value corresponds to CN(C)S(=O)(=O)c1ccc(N2CCCCC2)c(C(=O)O)c1 ? -9.97

Which measured inhibition at 1.25 µM value corresponds to O=C(O)c1coc(-c2cccnc2)n1 ? 4.16

Which measured inhibition at 1.25 µM value corresponds to CC(C)c1cc(C(=O)O)n(-c2ccccc2)n1 ? -0.28

Which measured inhibition at 1.25 µM value corresponds to O=C(O)c1ccc(S(=O)(=O)N2CCCCCC2)cc1 ? 4.89

Which measured inhibition at 1.25 µM value corresponds to Cn1nccc1[1C@@H]1C[1C@H]1C(=O)O ? -9.17

Which measured inhibition at 1.25 µM value corresponds to O=C(O)CC(O)(c1nccn1Cc1ccccc1)C(F)(F)F (stereo not drawn) ? 16.2

Which measured inhibition at 1.25 µM value corresponds to CC(C)(C)OC(=O)N1CC[C@H](C(=O)O)C1 ? -14.4

Which measured inhibition at 1.25 µM value corresponds to O=C(O)c1cccc(S(=O)(=O)NCc2cccs2)c1 ? 10.3

Which measured inhibition at 1.25 µM value corresponds to CCn1ccc(-c2cc(C(=O)O)no2)n1 ? -2.33

Which measured inhibition at 1.25 µM value corresponds to Cc1cc(C(=O)O)c(C)n1-c1ccon1 ? 33.1

Which measured inhibition at 1.25 µM value corresponds to CNS(=O)(=O)c1ccc(-c2ccc(Cl)c(Cl)c2)c(C(=O)O)c1 ? -4.58

Which measured inhibition at 1.25 µM value corresponds to Cn1cc(-c2nc(C(=O)O)cs2)cn1 ? -2.36

Which measured inhibition at 1.25 µM value corresponds to O=C(O)c1sccc1Br ? -14

Which measured inhibition at 1.25 µM value corresponds to Cc1cc(OCC(=O)O)ccc1C(C)C ? -10.7

Which measured inhibition at 1.25 µM value corresponds to O=C(O)c1ccc(CN2CCCCCC2)s1 ? 8.32

Which measured inhibition at 1.25 µM value corresponds to O=C(O)c1cccc(Oc2nccs2)c1 ? -7.69

Which measured inhibition at 1.25 µM value corresponds to Cn1cc(-c2cc[nH]n2)c(C(=O)O)n1 ? 7

Which measured inhibition at 1.25 µM value corresponds to O=C(NCc1ccc(C(=O)O)cc1)OCC1c2ccccc2-c2ccccc21 ? -3.66

Which measured inhibition at 1.25 µM value corresponds to Cc1oc(-c2cccs2)nc1C(=O)O ? 12.6

Which measured inhibition at 1.25 µM value corresponds to O=C(O)Cc1csc(-c2cnccn2)n1 ? 13.1

Which measured inhibition at 1.25 µM value corresponds to Cc1ccccc1COc1cccc(CC(=O)O)c1 ? -1.94

Which measured inhibition at 1.25 µM value corresponds to Cc1cc(C(=O)O)c(C2CC2)s1 ? 12.1

Which measured inhibition at 1.25 µM value corresponds to O=C(O)c1cn[nH]c1C1CC1 ? 20.1

Which measured inhibition at 1.25 µM value corresponds to O=C(O)c1ccccc1I ? -12.2

Which measured inhibition at 1.25 µM value corresponds to O=C(O)c1c[nH]nc1-c1ccncc1 ? -3.75

Which measured inhibition at 1.25 µM value corresponds to Cc1oc(-c2ccsc2)nc1CC(=O)O ? -7.19

Which measured inhibition at 1.25 µM value corresponds to CC(C)CC(=O)O ? -12.3

Which measured inhibition at 1.25 µM value corresponds to O=C(O)c1cc(C2CCCCC2)[nH]n1 ? 7.2

Which measured inhibition at 1.25 µM value corresponds to O=C(O)C1CC2CCC1O2 (stereo not drawn) ? -4.92

Which measured inhibition at 1.25 µM value corresponds to O=C(O)Cc1cnn(-c2ccccc2)n1 ? 0.63

Which measured inhibition at 1.25 µM value corresponds to O=C(O)c1ccc(F)c(F)c1 ? -18.1

Which measured inhibition at 1.25 µM value corresponds to CC(=O)C(=O)O ? -14.4

Which measured inhibition at 1.25 µM value corresponds to Cc1nn(-c2ccccn2)c(C)c1CC(=O)O ? -2.69

Which measured inhibition at 1.25 µM value corresponds to Cc1cc(C(=O)O)c(C)n1-c1cccnc1 ? -1.91

Which measured inhibition at 1.25 µM value corresponds to O=C(O)c1ncoc1-c1cccs1 ? 10.3

Which measured inhibition at 1.25 µM value corresponds to CC(=O)N1CCC(C(=O)O)CC1 ? -12.6

Which measured inhibition at 1.25 µM value corresponds to CC1=NN(c2cccc(Br)c2)C(=O)C1CC(=O)O (stereo not drawn) ? 26.8

Which measured inhibition at 1.25 µM value corresponds to O=C(O)c1ccc(=O)n(C2CC2)c1 ? -6.2

Which measured inhibition at 1.25 µM value corresponds to O=C(O)CCn1nc(C(F)(F)F)cc1C1CC1 ? -4.3

Which measured inhibition at 1.25 µM value corresponds to Cc1csc(N2CCC(C(=O)O)CC2)n1 ? 5.39

Which measured inhibition at 1.25 µM value corresponds to O=C(O)c1ccc(S(=O)(=O)N2CCOCC2)cc1 ? 2.77

Which measured inhibition at 1.25 µM value corresponds to O=C(O)c1csc(-c2ccncc2)n1 ? -1.91

Which measured inhibition at 1.25 µM value corresponds to O=C(O)CCc1ccccc1Br ? -8.19

Which measured inhibition at 1.25 µM value corresponds to O=C(O)c1cccc(Oc2ccc(Cl)cc2)n1 ? -1.48

Which measured inhibition at 1.25 µM value corresponds to O=C(O)C1=NNC(=O)C1c1ccccc1 (stereo not drawn) ? 10.3

Which measured inhibition at 1.25 µM value corresponds to O=C(O)CC1=NN(c2cccc(Cl)c2)C(=O)C1 ? 4.68
